Cited source: the supplement of paper PMC9170038

Test system: MS2 coat protein
Assay: apparent KD of MS2 coat protein; higher = weaker reporter binding
Conditions: Eterna round: R107; input ligand: arginine 13.2 mM
Below, each entry is listed with its recorded apparent KD of MS2 coat protein.
Respond numerically; units are nM and should not be typed.

| sequence entry | tgt | apparent KD of MS2 coat protein / nM |
| --- | --- | --- |
| UACAUGAGGAUCACCCAUGUAUUGCCGGUACGAGGACCGGUACGGCCGCCACUCGGAGCAUGAGGAUCACCCAUGUGCUGCUAUG [Same State Trypophan A GF 24] | MS2 coat protein | 35.5 |

Input line: Short answer please: apparent KD of MS2 coat protein, MS2 coat protein, entry AGCCACUCGAGUGAUCCUCACGAGUGGCUACGAGGACCGGUACGGCCGCCACUCGAAUUAACAUGAGGAUCACCCAUGUAAUCAU [Brourdmod04]
Output line: 97.8

Input line: Short answer please: apparent KD of MS2 coat protein, MS2 coat protein, entry AAAAGAGGUGGAAGGAGCGGGAGACAUGAGGAUCACCCAUGUGAAGUGACGAAAGGAUCAUCCCAGGUAGGUCGCCAUGUCGAAA [csstmullin]
Output line: 5.43
